study.target: human GRP receptor (human, UniProt P30550 1-384)
Sequence (P30550 whole entry): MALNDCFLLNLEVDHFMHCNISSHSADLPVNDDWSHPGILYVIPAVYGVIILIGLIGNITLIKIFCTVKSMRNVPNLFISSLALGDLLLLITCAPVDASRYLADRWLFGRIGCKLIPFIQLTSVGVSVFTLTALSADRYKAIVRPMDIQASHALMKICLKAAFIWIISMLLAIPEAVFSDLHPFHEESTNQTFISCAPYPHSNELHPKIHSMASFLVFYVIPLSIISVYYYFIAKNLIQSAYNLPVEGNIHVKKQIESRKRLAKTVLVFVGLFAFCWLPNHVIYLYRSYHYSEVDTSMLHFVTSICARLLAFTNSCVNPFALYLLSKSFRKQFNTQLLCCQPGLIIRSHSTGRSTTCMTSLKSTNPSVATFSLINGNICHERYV
test.details: cell-based or functional assay
Starred links: 1 amine or outer side, 2 acyl side, 3 side chain; linkers in the order of their positions; H or OH if unused. Non-standard residues stand in square brackets, D forms with d. *: point of attachment. Trp(7-Me) = Cc1cccc2c(C[C@H](N)C(=O)O)c[nH]c12; C20 diacid = O=C(O)CCCCCCCCCCCCCCCCCCC(=O)*; d(γGlu) = O=C(O)[C@@H](CCC(=O)[*:2])N[*:1]; C18 diacid = O=C(O)CCCCCCCCCCCCCCCCC(=O)*; γGlu = O=C(O)[C@H](CCC(=O)[*:2])N[*:1]; Nle = CCCC[C@H](N)C(=O)O; AEEA = NCCOCCOCC(=O)O; βAla = NCCC(=O)O; Sar = CNCC(=O)O
parameter.measured: hIP1 GRPR EC50 (nM)
Write it as a number; the unit nM goes unstated.

- binder: "{C18 diacid}-[γGlu][AEEA][AEEA]RRHWAV[dA]HL[Nle]-NH2 (SMILES CCCC[C@H](NC(=O)[C@H](CC(C)C)NC(=O)[C@H](Cc1c[nH]cn1)NC(=O)[C@@H](C)NC(=O)[C@@H](NC(=O)[C@H](C)NC(=O)[C@H](Cc1c[nH]c2ccccc12)NC(=O)[C@H](Cc1c[nH]cn1)NC(=O)[C@H](CCCNC(=N)N)NC(=O)[C@H](CCCNC(=N)N)NC(=O)COCCOCCNC(=O)COCCOCCNC(=O)CC[C@H](NC(=O)CCCCCCCCCCCCCCCCC(=O)O)C(=O)O)C(C)C)C(N)=O) [Peptide 141]"
  parameter.measured: "hIP1 GRPR EC50"
  u: "nM"
  value.observed: 7.72
- binder: "{C18 diacid}-[d(γGlu)][AEEA][AEEA]K(Ac)HWAV[dA]HL[Nle]-NH2 (SMILES CCCC[C@H](NC(=O)[C@H](CC(C)C)NC(=O)[C@H](Cc1c[nH]cn1)NC(=O)[C@@H](C)NC(=O)[C@@H](NC(=O)[C@H](C)NC(=O)[C@H](Cc1c[nH]c2ccccc12)NC(=O)[C@H](Cc1c[nH]cn1)NC(=O)[C@H](CCCCNC(C)=O)NC(=O)COCCOCCNC(=O)COCCOCCNC(=O)CC[C@@H](NC(=O)CCCCCCCCCCCCCCCCC(=O)O)C(=O)O)C(C)C)C(N)=O) [Peptide 71]"
  parameter.measured: "hIP1 GRPR EC50"
  u: "nM"
  value.observed: 6.2
- binder: "{C18 diacid}-[γGlu][AEEA][AEEA]GRH[Trp(7-Me)]AV[dA]HL[Nle][Sar]-NH2 (SMILES CCCC[C@H](NC(=O)[C@H](CC(C)C)NC(=O)[C@H](Cc1c[nH]cn1)NC(=O)[C@@H](C)NC(=O)[C@@H](NC(=O)[C@H](C)NC(=O)[C@H](Cc1c[nH]c2c(C)cccc12)NC(=O)[C@H](Cc1c[nH]cn1)NC(=O)[C@H](CCCNC(=N)N)NC(=O)CNC(=O)COCCOCCNC(=O)COCCOCCNC(=O)CC[C@H](NC(=O)CCCCCCCCCCCCCCCCC(=O)O)C(=O)O)C(C)C)C(=O)N(C)CC(N)=O) [Peptide 129]"
  parameter.measured: "hIP1 GRPR EC50"
  u: "nM"
  value.observed: 334

Qu. Value lookup for hIP1 GRPR EC50; key = {C20 diacid}-[γGlu][AEEA][AEEA][AEEA][AEEA]GRHWAV[dA]HL[Nle]-NH2 (SMILES CCCC[C@H](NC(=O)[C@H](CC(C)C)NC(=O)[C@H](Cc1c[nH]cn1)NC(=O)[C@@H](C)NC(=O)[C@@H](NC(=O)[C@H](C)NC(=O)[C@H](Cc1c[nH]c2ccccc12)NC(=O)[C@H](Cc1c[nH]cn1)NC(=O)[C@H](CCCNC(=N)N)NC(=O)CNC(=O)COCCOCCNC(=O)COCCOCCNC(=O)COCCOCCNC(=O)COCCOCCNC(=O)CC[C@H](NC(=O)CCCCCCCCCCCCCCCCCCC(=O)O)C(=O)O)C(C)C)C(N)=O) [Peptide 132]
Ans. 4.18

Qu. Value lookup for hIP1 GRPR EC50; key = {C20 diacid}-[γGlu][γGlu][AEEA][AEEA]GQHWAV[βAla]HL[Nle]-NH2 (SMILES CCCC[C@H](NC(=O)[C@H](CC(C)C)NC(=O)[C@H](Cc1c[nH]cn1)NC(=O)CCNC(=O)[C@@H](NC(=O)[C@H](C)NC(=O)[C@H](Cc1c[nH]c2ccccc12)NC(=O)[C@H](Cc1c[nH]cn1)NC(=O)[C@H](CCC(N)=O)NC(=O)CNC(=O)COCCOCCNC(=O)COCCOCCNC(=O)CC[C@H](NC(=O)CC[C@H](NC(=O)CCCCCCCCCCCCCCCCCCC(=O)O)C(=O)O)C(=O)O)C(C)C)C(N)=O) [Peptide 251]
Ans. 4.4

Qu. Value lookup for hIP1 GRPR EC50; key = {C20 diacid}-[γGlu][AEEA][AEEA][AEEA][AEEA]GRH[Trp(7-Me)]AV[dA]HL[Nle]-NH2 (SMILES CCCC[C@H](NC(=O)[C@H](CC(C)C)NC(=O)[C@H](Cc1c[nH]cn1)NC(=O)[C@@H](C)NC(=O)[C@@H](NC(=O)[C@H](C)NC(=O)[C@H](Cc1c[nH]c2c(C)cccc12)NC(=O)[C@H](Cc1c[nH]cn1)NC(=O)[C@H](CCCNC(=N)N)NC(=O)CNC(=O)COCCOCCNC(=O)COCCOCCNC(=O)COCCOCCNC(=O)COCCOCCNC(=O)CC[C@H](NC(=O)CCCCCCCCCCCCCCCCCCC(=O)O)C(=O)O)C(C)C)C(N)=O) [Peptide 122]
Ans. 3.88

Qu. Value lookup for hIP1 GRPR EC50; key = {C20 diacid}-[γGlu][AEEA][AEEA]GNH[Trp(7-Me)]AV[3A3MBA]HL[Nle]-NH2 [Peptide 264]
Ans. 8.6
